Cited source: PubChem BioAssay (NCI)

# Tested on: HOP-92 NSCLC
# measurement_notes: NCI-60 one-dose screen, 48 h (100 = growth as untreated, 0 = no growth, -100 = all killed)
# particulars: 10 µM unless noted
About 83,000 compounds went through this panel and 20% of them were active in at least one assay; those are over-represented in the sample as a whole.
Output: class label from growth. Mapping: range 1 (below 60%), range 2 (60% to below 90%), range 3 (90% or more)

# compound, experimental_target, assigned_class
records = [
    ("CNC(=O)c1cc(Oc2ccc3nc(NC(=O)c4cccc(C(F)(F)F)c4)sc3c2)ccn1", "HOP-92 NSCLC", "range 3"),
    ("Cc1ccccc1NC1CC(=O)N(c2ccc(Cl)cc2Cl)C1=O (configuration not stated)", "HOP-92 NSCLC", "range 2"),
    ("COc1ccc(-c2nc3cc(Cl)c(Cl)cc3n2CC(=O)N=Nc2c(O)[nH]c3ccc(Cl)cc23)cc1", "HOP-92 NSCLC", "range 1"),
    ("Clc1ccc(-c2csc(N/N=C/c3nc4ccccc4n3C3CC3)n2)cc1", "HOP-92 NSCLC", "range 3"),
    ("COc1cc2c3c(n(CCCN4CCC[C@H]4C(N)=O)c(=O)c2cc1OC)-c1cc2c(cc1C3=O)OCO2", "HOP-92 NSCLC", "range 1"),
    ("O=C1CC2(CCOCC2)Oc2ncccc21", "HOP-92 NSCLC", "range 3"),
    ("COc1ccc(/C=C/C(=O)c2nnn(-c3ccc(Br)cc3)c2C)cc1OC", "HOP-92 NSCLC", "range 2"),
    ("C#C[C@]1(O)CC[C@H]2[C@@H]3CC=C4c5sc(Nc6cccc(Cl)n6)nc5CC[C@]4(C)[C@H]3CC[C@@]21C", "HOP-92 NSCLC", "range 1"),
    ("COc1ccc2c(c1)oc1c3[nH]c4ccccc4c3c3c(c21)C(=O)N(O)C3=O", "HOP-92 NSCLC", "range 3"),
    ("CC(C)=CCC[C@](C)(O)[C@H]1CC[C@]2(C)[C@@H]1CC[C@@H]1[C@@]3(C)CCC(NC(=O)c4ccccc4C(=O)O)C(C)(C)[C@@H]3CC[C@]12C (some centres not stated)", "HOP-92 NSCLC", "range 2"),
    ("CN1C(=O)N(C)C2Nn3c(s/c(=C\\c4ccccn4)c3=O)=NC21 (configuration not stated)", "HOP-92 NSCLC", "range 3"),
    ("C#Cc1ccc(NC(=O)c2ccc(/C=C/C(=O)c3nccn3C)cc2)c(F)c1", "HOP-92 NSCLC", "range 2"),
    ("C/C(=C(/c1ccc(O)cc1)c1ccc(OCCN(C)C)cc1)c1ccc(Cl)cc1", "HOP-92 NSCLC", "range 1"),
    ("CC1OC(O[C@@H]2[C@H](O)C(CO)OC(O[C@H]3COC(O[C@H]4CC[C@]5(C)[C@H]6CC[C@]78OC[C@@]9(CC[C@](C)(C=O)C[C@H]97)C(=O)C[C@@]8(C)[C@]6(C)CC[C@H]5C4(C)C)[C@@H](O)[C@@H]3O)[C@H]2OC2OC[C@@H](O)[C@@H](O)[C@@H]2O)[C@@H](O)[C@@H](O)[C@H]1O (some centres not stated)", "HOP-92 NSCLC", "range 2"),
    ("COc1ccc(NC(=O)[C@H](C)NC(=O)OC(C)(C)C)cc1C(=O)Nc1cccc(-c2cc(=O)c3c(OC)c(OC)c(OC)cc3o2)c1", "HOP-92 NSCLC", "range 1"),
    ("COC(=O)Nc1ccc(-c2nc(-c3cccc(O)c3)c(-c3ccnc(Br)c3)[nH]2)cc1", "HOP-92 NSCLC", "range 1"),
    ("NC(N)=NS(=O)(=O)c1ccc(N=NC2C(=O)NN(c3ccccc3)C2=O)cc1 (configuration not stated)", "HOP-92 NSCLC", "range 2"),
    ("O=C(CCCCCCN1CC(=O)N2[C@@H](c3cc(F)cc(F)c3)c3[nH]c4ccccc4c3C[C@H]2C1=O)NO", "HOP-92 NSCLC", "range 1"),
    ("COc1ccc(Cn2cc3c(c2-c2cc(OC)c(OC)c(OC)c2)CCCc2cnoc2-3)cc1", "HOP-92 NSCLC", "range 1"),
    ("C[C@H]1[C@H](C)CC[C@]2(COC(=O)c3cccnc3)CC[C@]3(C)C(=CC[C@@H]4[C@@]5(C)CCCNC(C)(C)[C@@H]5CC[C@]43C)[C@H]12", "HOP-92 NSCLC", "range 2"),
    ("COc1cc(CNC(=O)Cc2ccccc2[N+](=O)[O-])ccc1OCC(=O)NO", "HOP-92 NSCLC", "range 3"),
    ("Oc1ccc(CSc2nnc(-c3ccc(Br)cc3)n2-c2ccccc2)c2cccnc12", "HOP-92 NSCLC", "range 1"),
    ("Oc1ccccc1-c1nnc(SCc2ccc(O)c3ncccc23)n1-c1ccccc1", "HOP-92 NSCLC", "range 1"),
    ("CN1CCN(c2nc(-c3csc(-c4ccncc4)n3)cc3ccccc23)CC1", "HOP-92 NSCLC", "range 1"),
    ("CCOC(=O)c1c(NCC(=O)Nc2cccc(Cl)c2)sc2c1CCCC2", "HOP-92 NSCLC", "range 3"),
    ("COc1cc2cc(Oc3ccc(NC(=O)Nc4cc(C(F)(F)F)cc(C(F)(F)F)c4)cc3)c(C)nc2cc1OCCN(C)C", "HOP-92 NSCLC", "range 3"),
    ("CS(=O)(=O)c1ccc(-c2nn(-c3ccccc3)cc2/C=C/C(=O)c2ccc(Br)cc2)cc1", "HOP-92 NSCLC", "range 3"),
    ("Cc1cnc2nc(NN)[nH]n12", "HOP-92 NSCLC", "range 3"),
    ("N/C(=N\\c1nc2c(Cl)cccc2s1)C(Cl)(Cl)Cl", "HOP-92 NSCLC", "range 2"),
    ("COc1ccc(C(=O)n2cc(C=O)c3ccccc32)cc1", "HOP-92 NSCLC", "range 2"),
    ("C/C=C/[C@@H]1C=C[C@@H]2C[C@H](C)CC[C@H]2[C@]1(C)/C(O)=C1/C(=O)[C@H](CO)N(C)C1=O", "HOP-92 NSCLC", "range 1"),
    ("Cc1cc(-c2ccc3nc(N)sc3c2)nc2ccc3[nH]ncc3c12", "HOP-92 NSCLC", "range 1"),
    ("O=C1Nc2ccc(Br)cc2/C1=N\\c1nnc(-c2ccc(Cl)cc2)o1", "HOP-92 NSCLC", "range 2"),
]

###

# System: TK-10 renal
# measurement_notes: NCI-60 one-dose screen, 48 h (100 = growth as untreated, 0 = no growth, -100 = all killed)
# particulars: 10 µM unless noted
About 83,000 compounds went through this panel and 20% of them were active in at least one assay; those are over-represented in the sample as a whole. The source made the active and inactive calls. How the source made its calls: active means growth percent below 10; inactive means the rest.
Here, each record is paired with measured growth data.
readout: growth

# compound, recorded_measurement
data = [
    ("Oc1ccccc1-c1nnc(SCc2ccc(O)c3ncccc23)o1", "43.9% (inactive)"),
    ("COc1ccc(-c2nc(SCC(C)C)nc(N/N=C\\c3cccc([N+](=O)[O-])c3)c2C#N)cc1", "91.4% (inactive)"),
    ("CC(=O)NC(C)(C)C(=O)N1CCC[C@H]1C(=O)NC(C)(C)C(=O)N[C@@H](C)C(=O)NC(C)(C)C(=O)N[C@@H](C)C(=O)N[C@@H](CCC(N)=O)C(=O)NC(C)(C)C(=O)N[C@H](C(=O)NC(C)(C)C(=O)NCC(=O)N[C@@H](CC(C)C)C(=O)NC(C)(C)C(=O)N1CCC[C@H]1C(=O)N[C@H](C(=O)NC(C)(C)C(=O)NC(C)(C)C(=O)N[C@@H](CCC(N)=O)C(=O)N[C@@H](CCC(N)=O)C(=O)N[C@H](CO)Cc1ccccc1)C(C)C)C(C)C", "87.1% [4.25 µM] (inactive)"),
    ("COc1cc(/C=N/n2cnc3oc(-c4ccccc4)cc3c2=N)cc(CN2CCOCC2)c1O", "102% (inactive)"),
    ("COc1ccc(-c2nc3cc(Cl)c(Cl)cc3n2CC(=O)N=Nc2c(O)[nH]c3ccccc23)cc1", "95.7% (inactive)"),
    ("CCN1C(=O)N(CC)C2SC(N/N=C/c3ccc(OC)cc3)=NC21 (stereo unspecified)", "72.8% (inactive)"),
]

###

# Tested on: U251 CNS
# measurement_notes: NCI-60 one-dose screen, 48 h (100 = growth as untreated, 0 = no growth, -100 = all killed)
# particulars: 10 µM unless noted
This is part of a sample that, as a whole, favours compounds with a hit. Of some 83,000 tested, about 20% had one in any assay.
So basically, if growth comes in under 80% it's 1.0, and if it's 80% or more it's 0.0.

# compound, experimental_target, assigned_class
records = [
    ("Clc1ccccc1/C=C/c1nn2c(-c3ccncc3)nnc2s1", "U251 CNS", 0.0),
    ("CNC(=O)c1cc(Oc2ccc3nc(NC(=O)c4cccc(C(F)(F)F)c4)sc3c2)ccn1", "U251 CNS", 0.0),
    ("N#C/C(=C\\c1ccc(-c2ccc(F)cc2)o1)C(=O)Nc1ncc(Cc2ccc(Cl)cc2Cl)s1", "U251 CNS", 1.0),
    ("Cc1ccc(S(=O)(=O)N/N=C/c2cn(-c3ccc(F)cc3)nc2-c2ccc(S(C)(=O)=O)cc2)cc1", "U251 CNS", 0.0),
    ("CSc1ccc(/C(=N/N=C(N)N)c2ccccc2)cc1", "U251 CNS", 1.0),
    ("COc1cc(/C=C/C(=O)c2ccc(NC(=O)COc3cccc4cccnc34)cc2)cc(OC)c1OC", "U251 CNS", 0.0),
    ("N#C/C(=C\\c1ccc2ccccc2c1)C(=O)Nc1sc2c(c1C#N)CCC2", "U251 CNS", 0.0),
    ("O=S(=O)(Nc1ccc(-c2nc(-c3cccc(O)c3)c(-c3ccnc(Br)c3)[nH]2)cc1)c1ccccc1", "U251 CNS", 1.0),
    ("O=C(Nc1ccccc1)Nc1nc2ccc([N+](=O)[O-])cc2s1", "U251 CNS", 1.0),
    ("Cc1ccc(NC(=O)c2cccc(CN3CCN(C)CC3)c2)cc1Oc1ccc(-c2[nH]nc3ncnc(N)c23)cc1", "U251 CNS", 1.0),
    ("O=[N+]([O-])c1ccc(-c2nnc(SCc3ccc(O)c4ncccc34)o2)cc1", "U251 CNS", 1.0),
    ("CCOC(=O)c1nn(-c2ccccc2)c(=O)c2c(N)c(C#N)c(-c3cccs3)cc12", "U251 CNS", 1.0),
    ("O=C(Nc1cccc(-c2nc(-c3ccc(NC(=O)c4cccs4)cc3Cl)no2)c1)Nc1ccc(NC(=O)C2CC2)c(C(F)(F)F)c1", "U251 CNS", 1.0),
    ("C=CCn1c(SCC(=O)Nc2ccc(OC)cc2)nnc1-c1ccc(Cl)cc1", "U251 CNS", 0.0),
    ("COc1ccc(NC(=O)[C@H](C)N)cc1C(=O)Nc1cccc(-c2cc(=O)c3c(OC)c(OC)c(OC)cc3o2)c1", "U251 CNS", 1.0),
    ("CN1C(=O)N(C)C2C1NN=c1s/c(=C\\c3ccccn3)c(=O)n12 (centres undefined)", "U251 CNS", 0.0),
    ("COc1cc(NC2=C(Cl)C(=O)c3nc(C)ccc3C2=O)cc(OC)c1", "U251 CNS", 1.0),
    ("O=C1[C@@H]2Cc3c([nH]c4ccccc34)[C@H](c3c(Cl)cccc3Cl)N2C(=O)CN1C1CCN(Cc2c(F)cccc2F)CC1", "U251 CNS", 1.0),
    ("Cn1cc(-c2nn3cc(-c4cccnc4)nc3s2)c2cc(F)ccc21", "U251 CNS", 0.0),
]
